Test system: NCI-H460 lung
Experiment: NCI-60 one-dose screen, 48 h (100 = growth as untreated, 0 = no growth, -100 = all killed)
Conditions: 10 µM unless noted
Procedure: Growth inhibition of the NCI-H460 human Non-Small Cell Lung tumor cell line is measured as a screen for anti-cancer activity. Cells are grown in 96 well plates and exposed to the test compound for 48 hours. Compounds are tested at a single concentration, which is 10^-5 M for most compounds. The reported endpoint is percent growth (GI% or GIPRCNT), where numbers from 0 - 100% represent growth inhibition, and numbers from -100% - 0 represent cell death. […]
About 83,000 compounds went through this panel and 20% of them were active in at least one assay; those are over-represented in the sample as a whole.
Task for the reader: assign each of the following compounds its reported growth.
Respond numerically; units are % and should not be typed.

query: Recorded growth for O=C(CCCCCCN1CC(=O)N2[C@@H](c3ccccc3)c3[nH]c4ccccc4c3C[C@H]2C1=O)NO , please?
result: 54.2

query: What about this compound? CN1CCN(c2ccc(NC(=O)Nc3ccc4c(ccn4-c4cccc(C(N)=O)n4)c3)cc2C(F)(F)F)CC1
result: 87.2

query: Proceed to CC(C)C[C@H]1C(=O)O[C@H](C(C)C)C(=O)N(C)[C@@H](C(C)C)C(=O)O[C@H](C(C)C)C(=O)N(C)[C@@H](C(C)C)C(=O)O[C@H](C(C)C)C(=O)N1C
result: 8.47

query: Another: CCOC(=O)c1ccc(N/C=C/C(=O)c2ccccc2)cc1
result: 104

query: Same thing, different compound: CN1CCN(c2ccc(C(=O)/C=C/c3ccc(Cl)c(C(F)(F)F)c3)cc2)CC1
result: 88

query: Next record, please: CCOC(=O)C1=C(C)N=C2Sc3ccccc3N2C1c1ccccc1 (stereo not given)
result: 91.2

query: Thanks! And C#C[C@]1(O)CC[C@H]2[C@@H]3CC=C4c5sc(C6CC6)nc5CC[C@]4(C)[C@H]3CC[C@@]21C ?
result: 82.2

query: Do the same for CCOC(=O)Nc1cccc(-n2cnc3cc(-c4ccc(O)cc4)ccc32)c1 please
result: 4.77

query: O=S(=O)(Nc1ccc(-c2nc(-c3cccc(O)c3)c(-c3ccnc(Br)c3)[nH]2)cc1)c1ccccc1 ?
result: 19.7

query: Try the compound O=C(Nc1cc(F)cc2cccnc12)c1cnc(N2CCOCC2)cn1
result: 98.9

query: Record: C=C(C)C(=O)O[C@H]1C[C@@]2(C)OC(=CC2=O)/C(CO)=C\[C@H]2OC(=O)C(=C)[C@H]12
result: 12.5

query: Next record, please: Cc1nn(-c2ccccc2)cc1/C=N/Nc1nc(Nc2ccccc2)nc(Nc2ccc(S(N)(=O)=O)cc2)n1
result: -35.9

query: And for O=C1Nc2cc(OC(F)(F)F)ccc2Oc2ccc(-c3ccnc(N4CC[C@H](O)C4)c3)cc21 ?
result: -47.1

query: Now consider COc1cc(/C=N/n2cnc3oc(-c4ccccc4)cc3c2=N)cc(CN2CCCCC2)c1O .
result: -72.7

query: Similarly, C=CCn1c(SCC(=O)Nc2cccc(C(=O)/C=C/c3cccc([N+](=O)[O-])c3)c2)nc2ccccc2c1=O ?
result: 93.4

query: Now consider CSc1nccc(-c2c(-c3ccc(F)c(OCc4ccc(F)cc4)c3)nc3sccn23)n1 and answer again.
result: 89.8

query: What about this compound? CCCCCCCCCC[C@@H](C)[C@@H]1CC(=O)N[C@H]([C@@H](C)O)C(=O)N[C@@H](C)C(=O)N[C@H](C)C(=O)N[C@@H](CCC(N)=O)C(=O)N[C@H](Cc2ccc(O)cc2)C(=O)N[C@@H](C(C)CC)C(=O)O1 (stereo not given in full)
result: 63.6

query: And what about the compound COc1ccc(C(=O)c2c(N)c(C#N)cn2-c2cccc(OC)c2)cc1 ?
result: 27.8

query: Same again, this time with COc1cc(CNC(=O)Cc2ccccc2[N+](=O)[O-])ccc1OCC(=O)NO
result: 114

query: Entry CCN(CC)CCN1C(=O)c2c(c3c4cc(Br)ccc4[nH]c3c3ccc4ccccc4c23)C1=O please
result: -65.8

query: Can you check Cn1cc(-c2nnc(N)nc2-c2cn(C)c3ccc(F)cc23)c2cc(F)ccc21 next?
result: 102

query: Query Nc1nc(N)c2c(n1)NC(c1ccccc1)CC(c1ccc(Nc3nc(NCCO)nc(Nc4ccc(Cl)cc4)n3)cc1)=N2 (stereo not given) next
result: -80.3

query: Also O=C(CN1CCN(c2cc(=O)n(-c3ccccc3)c3ccccc23)CC1)Nc1ccc([N+](=O)[O-])cc1 , if possible.
result: 94.3

query: Ok, now CNC(=O)c1cc(N2CCc3cc(NC(=O)Nc4ccc(Cl)c(Cl)c4)ccc32)ccn1
result: 82.5

query: Same again, this time with N#C/C(=C\c1ccc2ccccc2c1)C(=O)Nc1sc2c(c1C#N)CCC2
result: 104

query: Entry to check: NS(=O)(=O)c1ccc(Nc2nc(N/N=C/c3ccc(C(F)(F)F)cc3)nc(Nc3ccccc3)n2)cc1
result: 14.6

query: Another compound: CC1=C2C(=C[C@@](C)(COS(N)(=O)=O)[C@@H]2O)C(=O)[C@](C)(O)C12CC2
result: 7.04

query: Note, next up: COCCOc1ccc(-c2csc(NC(=O)CN3CCN(CCO)CC3)n2)cc1NS(=O)(=O)c1cccc2c(N(C)C)cccc12
result: 98.2

query: How about this compound: CC(=O)Nc1cccc(-n2cnc3cc(-c4ccc(O)cc4)ccc32)c1
result: 15.9

query: Further, for Nc1ccc(-c2nnc(SCc3ccc(O)c4ncccc34)o2)cc1 ?
result: -46.8

query: Would you mind doing O=C(CCCCCCN1CC(=O)N2[C@@H](c3cccc(Cl)c3)c3[nH]c4ccccc4c3C[C@H]2C1=O)NO as well?
result: 43.1

query: Further, for COc1ccc2c(ccn2C(=O)N2c3ccccc3Sc3ccccc32)c1 ?
result: 14.2

query: How about this compound: CCNCCCn1c2c(c3cc(OC)c(OC)cc3c1=O)C(=O)c1cc(OC)cnc1-2
result: 0.566

query: Also O=C1c2c(O)cc(O)cc2O[C@@H](c2ccc(O)cc2)[C@@H]1c1c(O)cc(O)c2c(=O)cc(-c3ccc(O)c(O)c3)oc12 ?
result: 112

query: Now consider COc1ccc(-c2oc3cc(O)cc(O)c3c(=O)c2OC)cc1O and answer again.
result: 8.84
